Recorded values, source patent US5705487A.

Target: Bovine trypsin (Bos taurus, UniProt P00760)
Construct: Bovine trypsin is purchased from Worthington Biochemicals; purchased Worthington Biochemicals, Freehold, N.J
Sequence (P00760 24-246): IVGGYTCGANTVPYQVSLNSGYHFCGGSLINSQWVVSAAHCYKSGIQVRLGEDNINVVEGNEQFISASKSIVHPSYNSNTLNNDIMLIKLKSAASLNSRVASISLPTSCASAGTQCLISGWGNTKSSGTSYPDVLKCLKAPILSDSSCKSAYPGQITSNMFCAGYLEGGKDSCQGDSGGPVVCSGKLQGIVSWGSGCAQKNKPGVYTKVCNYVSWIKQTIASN
Assay: Kass, trypsin chromogenic substrate assay
Type: biochemical
Conditions: substrate N-Benzoyl-Phe-Val-Arg-p-nitroanilide
Recorded metric: Kass × 10^6 (L/mole) Trypsin

Below: 6 compounds and their reported Kass × 10^6 (L/mole) Trypsin.
[
  {
    "Compound": "N=C(N)Nc1cccc(CCNC(=O)[C@@H]2CCCN2C(=O)[C@@H]2NCC[C@@H]3CCCC[C@@H]32)c1",
    "Tgt": "Bovine trypsin (Bos taurus, UniProt P00760)",
    "Result value": "< 0.001 × 10^6 L/mole"
  },
  {
    "Compound": "CCS(=O)(=O)N[C@H](CC1CCCCC1)C(=O)N1CCC[C@H]1C(=O)NCc1ccc(C(=N)N)cc1.Cl",
    "Tgt": "Bovine trypsin (Bos taurus, UniProt P00760)",
    "Result value": "90. × 10^6 L/mole"
  },
  {
    "Compound": "Cl.N=C(N)c1ccc(CNC(=O)[C@@H]2C[C@@H]3CCCC[C@@H]3N2C(=O)[C@@H](CC2CCCCC2)NCC(=O)O)cc1 (relative stereo)",
    "Tgt": "Bovine trypsin (Bos taurus, UniProt P00760)",
    "Result value": "940. × 10^6 L/mole"
  },
  {
    "Compound": "NCc1ccc(CNC(=O)[C@@H]2CCCN2C(=O)[C@@H](CC2CCCCC2)NCC(=O)O)cc1",
    "Tgt": "Bovine trypsin (Bos taurus, UniProt P00760)",
    "Result value": "8.6 × 10^6 L/mole"
  },
  {
    "Compound": "Cl.O=C(O)CN[C@H](CC1CCCCC1)C(=O)N1CCC[C@H]1C(=O)NCC1=CCNCC1",
    "Tgt": "Bovine trypsin (Bos taurus, UniProt P00760)",
    "Result value": "0.40 × 10^6 L/mole"
  },
  {
    "Compound": "CCS(=O)(=O)N[C@H](Cc1ccccc1)C(=O)N1CCC[C@H]1C(=O)NCc1cccc(NC(=N)N)c1",
    "Tgt": "Bovine trypsin (Bos taurus, UniProt P00760)",
    "Result value": "0.01 × 10^6 L/mole"
  }
]

Now let's try a different one.
Annotate the compound "N=C(N)N1CCC(CCNC(=O)[C@@H]2CCCN2C(=O)[C@@H](CC2CCCCC2)NCC(=O)O)CC1" with its measured Kass × 10^6 (L/mole) Trypsin.
0.24 × 10^6 L/mole

###

A collection of compounds and their measured Kass × 10^6 (L/mole) Plasmin
Target: Human plasmin (Homo sapiens, UniProt P00747)
Construct: Human plasmin is purchased from Boehringer Mannheim; purchased Boehringer Mannheim, Indianapolis, Ind
Sequence (P00747 581-810 limits assumed): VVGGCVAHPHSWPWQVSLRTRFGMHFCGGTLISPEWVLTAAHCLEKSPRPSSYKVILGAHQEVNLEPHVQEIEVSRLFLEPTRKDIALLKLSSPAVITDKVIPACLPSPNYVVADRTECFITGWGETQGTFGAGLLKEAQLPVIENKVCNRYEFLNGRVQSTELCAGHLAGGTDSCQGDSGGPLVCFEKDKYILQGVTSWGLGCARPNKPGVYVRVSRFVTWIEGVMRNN
Sequence (P00747 97-580 partner limits assumed): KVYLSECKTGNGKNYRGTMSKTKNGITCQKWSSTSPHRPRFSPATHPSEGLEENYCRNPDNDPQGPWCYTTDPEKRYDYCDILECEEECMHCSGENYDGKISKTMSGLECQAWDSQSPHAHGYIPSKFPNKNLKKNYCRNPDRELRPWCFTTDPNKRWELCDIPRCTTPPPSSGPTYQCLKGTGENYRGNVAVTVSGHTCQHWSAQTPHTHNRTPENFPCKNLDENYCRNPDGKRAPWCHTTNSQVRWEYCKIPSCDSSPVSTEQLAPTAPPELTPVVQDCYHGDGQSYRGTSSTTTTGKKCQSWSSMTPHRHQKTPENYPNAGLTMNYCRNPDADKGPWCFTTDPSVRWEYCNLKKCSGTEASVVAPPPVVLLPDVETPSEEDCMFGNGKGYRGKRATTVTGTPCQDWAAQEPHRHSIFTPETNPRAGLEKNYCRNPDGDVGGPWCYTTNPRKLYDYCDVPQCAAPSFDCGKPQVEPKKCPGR
Experiment: Kass, plasmin chromogenic substrate assay
Type: biochemical
Conditions: substrate H-D-Val-Leu-Lys-p-nitroanilide
Where a name gives a salt, the structure may show the parent alone.

The following compounds have reported results that may help.
[
  {
    "Compound": "CCS(=O)(=O)N[C@H](Cc1ccccc1)C(=O)N1[C@H](C(=O)NCc2ccc(C(=N)N)cc2)C[C@@H]2CCCC[C@@H]21 (relative stereo)",
    "Result value": "1.1 × 10^6 L/mole"
  },
  {
    "Compound": "Cl.Cl.N=C(N)c1ccc(CNC(=O)[C@@H]2CCCN2C(=O)[C@H](N)CC2CCCCC2)cc1 [Example 51, D-Cha-Pro-p-NHCH2 C6 H4 C(NH)NH2.2HCl]",
    "Result value": "0.13 × 10^6 L/mole"
  },
  {
    "Compound": "N=C(N)c1cccc(CCNC(=O)[C@@H]2CCCN2C(=O)[C@@H]2NCC[C@@H]3CCCC[C@@H]32)c1",
    "Result value": "< 0.001 × 10^6 L/mole"
  },
  {
    "Compound": "Cl.O=C(O)CN[C@H](CC1CCCCC1)C(=O)N1CCC[C@H]1C(=O)NCCCC1=CCNCC1",
    "Result value": "< 0.001 × 10^6 L/mole"
  },
  {
    "Compound": "O=C(O)CN[C@H](CC1CCCCC1)C(=O)N1CCC[C@H]1C(=O)NCCCC1CCNCC1",
    "Result value": "< 0.001 × 10^6 L/mole"
  }
]

Determine from records and report Kass × 10^6 (L/mole) Plasmin for N=C(N)c1cccc(CNC(=O)[C@@H]2CCCN2C(=O)[C@@H]2NCC[C@@H]3CCCC[C@@H]32)c1 [Example 25, D-1-Piq-Pro-m-NHCH2 -C6 H4 C(=NH)NH2.HCl]
< 0.001 × 10^6 L/mole
